System: A549/SAHA
Test: cells
Conditions: Homo sapiens, 48 h
measuredQuantity: pIC50
In textbook form, pIC50 equals minus log to base ten of the concentration in mol/L.

So, C=C(c1ccc(C(=O)NO)cc1)c1cc2c(cc1C)C(C)(C)CCC2(C)C ? Its pIC50 was 5.42
